- Test system: NCI-H460
- ASSAY REMARKS: NCI tumour cell line growth inhibition, 48 h
Activity calls are given as the source filed them. No stated cut-off is given here; in the data, active = GI50 up to about 1.1 µM and inactive = higher.
Your response should consist of one outcome taken from active, inactive

// known answers, use as guide
CCCc1c(O)nc(Nc2nc3ccccc3[nH]2)[nH]c1=O = inactive
C=C[C@@H](OCOCC[Si](C)(C)C)[C@@H](CC)OC(CCCOC(=O)C(C)(C)C)OC (stereo partly drawn) = inactive
O=C1c2ccccc2C(=O)N1CCn1ccc(NC(c2ccccc2)(c2ccccc2)c2ccccc2)nc1=O = inactive

We next turn to a different molecule, shown below.
Data request: # lookup: test call for "Nc1nc(NNc2ccc(Cl)c(Cl)c2)cc(=O)[nH]1"
Data returned: inactive

====

# GI50 per entry
- Tested on: MDA-MB-231
- ASSAY REMARKS: NCI tumour cell line growth inhibition, 48 h
Active and inactive are the calls of the source. Rule as the data show it: active = GI50 up to about 1.1 µM and inactive = higher. Residues, ends and D or L forms follow the SMILES beside them.

[N-]=[N+]=NCC(=O)c1cnc(O)nc1O = > 100 µM (inactive)
CNc1nc2c(C)ccc3nc(N(C)C)nc-3c2n1C = > 10 µM (inactive)
O=c1[nH][nH]c(=O)n1Cc1ccccc1Cn1c(=O)[nH][nH]c1=O = > 100 µM (inactive)
COc1ccc(-c2cc(-c3ccccc3)nc(N)n2)c(O)c1 = > 26.2 µM (inactive)
Cc1cc2cc3c(cc2c(-c2ccc(N)cc2)n1)OCO3 = 13.7 µM (inactive)
O=c1ccn(CC2(CO)CCCC2)c(=O)[nH]1 = > 100 µM (inactive)

We now examine a further compound.
Consider CCC(C)C(NC(=O)C(CC(C)C)NC(=O)CNC(=O)C(NC(=O)C1CCCN1C(=O)C(CC(C)C)NC(=O)C(N)Cc1ccccc1)C(C)CC)C(=O)NC(CC(C)C)C(N)=O (configuration not stated) (H-FLPIGLIL-NH2; configuration not given here) . Its measured GI50 is > 75 µM (inactive)

====

- Tested on: LOX IMVI
- ASSAY REMARKS: NCI tumour cell line growth inhibition, 48 h
The source made the active and inactive calls. Cut-off read from the data, not from the text of the source: active = GI50 up to about 1.1 µM and inactive = higher.
MEASURED METRIC: GI50

CC(C)(C)C1CCC2c3c([nH]c4ccccc34)C3C(=O)N(c4ccccc4Cl)C(=O)C3C2C1 (stereo unspecified) = 10.6 µM (inactive)
O=C(/C=C/c1cccc([N+](=O)[O-])c1)N1CCN(CCOC(c2ccccc2)c2ccccc2)CC1 = 22.9 µM (inactive)
Cc1c(/C=N/NC(=S)Nc2ccccc2)c(=O)n(-c2ccccc2)n1C = > 100 µM (inactive)
O=C1CCc2cc3c(cc21)CC1(Cc2cc4c(cc2C1)CCCC4)C3 = 58.5 µM (inactive)
CCOC(=O)C(=O)Nc1ccc(C)cc1C = > 100 µM (inactive)

We now examine a further compound.
Consider CN(C)CC1CCC/C1=N/OC(=O)c1ccccc1 (stereo unspecified) . Its measured GI50 is > 100 µM (inactive)

====

- Test system: HCC 2998
- ASSAY REMARKS: NCI tumour cell line growth inhibition, 48 h
Activity calls are given as the source filed them. Cut-off read from the data, not from the text of the source: active = GI50 up to about 1.1 µM and inactive = higher.
Your response should consist of one outcome taken from true for active, false for inactive

// known answers, use as guide
Cc1cc(C)c(-c2noc(-c3ccc(Cl)cc3)c2C2=NCCN2)c(C)c1 = false
C/C=C/CC(S(=O)(=O)c1ccccc1)S(=O)(=O)c1ccccc1 = false
C=C1C(=O)C2(C)OC2(C)C1C(=O)O (configuration not stated) = false
[N-]=[N+]=Nc1c([N+](=O)[O-])c(Cl)nc2ccccc12 = false

Data request: # lookup: test call for "O=C(c1ccccc1)c1nc2ccc(Cl)cc2cc1C(Br)Br"
Data returned: true

Data request: # lookup: test call for "Cc1cc(-c2nc3ccccc3s2)ccc1NC(=O)[C@H](C)N"
Data returned: false

Data request: # lookup: test call for C#CCNC(=O)NCCCCC(NC(C)=O)C(=O)NCc1ccccc1 (configuration not stated)
Data returned: false

FYI, the data here is from ChEMBL document CHEMBL1201862.
